system: MDA-MB-435; assay: NCI tumour cell line growth inhibition, 48 h
Calls of active or inactive are those of the source. Rule as the data show it: active = GI50 up to about 1.1 µM and inactive = higher.
Items are presented alongside their recorded GI50.

COc1cc(OC)c(OC)cc1/C=C\c1ccnc2ccccc12 ... 0.156 µM (active)
O=C1/C(=c2\c3ccccc3n3c(=O)c4ccccc4nc23)Nc2ccccc21 ... 18.5 µM (inactive)
O=S1(=O)N=C(SCc2c[nH]c3ccccc23)N(c2ccccc2)c2ccncc21 ... > 100 µM (inactive)
O=S(=O)(O)C(CO)c1ccccc1.O=S(=O)(O)Cc1ccccc1 (stereo unspecified) ... > 100 µM (inactive)
COC(=O)C1=C(OC(=O)/C=C/c2ccc(Cl)cc2)C(C(=O)OC)[C@]2(O)[C@@H](C(=O)OC)[C@H]1C[C@@H](c1ccccc1)[C@@H]2C(=O)OC (stereo partly specified) ... 3.82 µM (inactive)
O=C1C2CCN(CC2)C1(CO)CO ... 61.5 µM (inactive)

Fill in the blank: the reported GI50 of Cc1ccc(C(=O)N/N=C2/C(=O)c3c4ccccc4cc4cccc2c34)cc1 is ____. 23.9 µM (inactive)

For the molecule shown here, CCCCC1CCCCCCc2[nH]c(/C=C3\N=C(c4ccc[nH]4)C=C3OC)cc21 (stereo unspecified) , give the reported GI50. < 0.01 µM (active)
